A collection of compounds and their measured viability
# PROCEDURE TEXT: drug combination growth inhibition, ovarian cancer – cell-based, oncology-focused library, rucaparib conditional, profiling panel (AID 1508598)
# TEST CONDITIONS: patient-derived ovarian cancer cells, CellTiter-Glo viability, 144 h; at 0.0781 µM; OCI-P5x cells; with rucaparib 20 µM; stronger effect = lower value; 100% = cells with rucaparib alone
Answer format: numeric, % implied, no suffix.

For orientation, consider the following solved cases.
>>> recorded_measurement("Cc1cc2c(C(=O)NC[C@H](C)c3ccccc3)c(O)c(O)cc2c(O)c1-c1c(C)cc2c(C(=O)NC[C@H](C)c3ccccc3)c(O)c(O)cc2c1O")
105
>>> recorded_measurement("CCCc1ccc(OCC(=O)N(Cc2nc(-c3cccnc3)no2)C(C)C)cc1")
104
>>> recorded_measurement("OCCn1cc(-c2ccc3c(c2)CCC3=NO)c(-c2ccncc2)n1")
99

Given item CC1=C(/C=C/C(C)=C\C=C\C(C)=C/C(=O)O)C(C)(C)CCC1 , the value recorded as its viability is 96.7

# viability (compound: CC(C)(C(=O)NCC(F)(F)C(F)(F)F)C(=O)N[C@H]1C(=O)Nc2ccccc2-c2ccccc21 ) is 92

Value of measured viability for the entry COc1cc2c(cc1O)CC[C@@H]1[C@H]2CC[C@]2(C)[C@H](O)CC[C@@H]12 : 102

// viability value for CC(C)(C)C(=O)Nc1ccc2c(c1)C(=O)C(=O)c1ccccc1-2 : 63.5

The measured viability associated with COc1cc(C(=O)NC2CCN(C)CC2)ccc1Nc1ncc2c(n1)N(C1CCCC1)CC(F)(F)C(=O)N2C reads 63

# compound COc1cccc2c1C(=O)c1c(O)c3c(c(O)c1C2=O)C[C@@](O)(C(=O)CO)C[C@H]3O[C@H]1C[C@H](N)[C@H](O)[C@H](C)O1 ; its viability = 97.4

In plain terms, c1ccc(Cn2c(-c3ccc(OC[C@H](C4CCNCC4)n4c(-c5ccccc5)nc5ccccc54)cc3)nc3ccccc32)cc1 has a documented viability of 95.8

Short answer for CN(C)CCOc1ccc(-c2nc(-c3ccc4c(c3)CCC4=NO)c(-c3ccncc3)[nH]2)cc1 : viability was 83.1
